Recorded measurements of AChE (Electrophorus electricus) inhibitory activity (%) ± SD, one per entry
# measured target: AChE (Electrophorus electricus) (Electrophorus electricus, UniProt O42275)
# Construct: purchased Sigma-Aldrich (Steinheim, Germany)
# Sequence (O42275 24-633): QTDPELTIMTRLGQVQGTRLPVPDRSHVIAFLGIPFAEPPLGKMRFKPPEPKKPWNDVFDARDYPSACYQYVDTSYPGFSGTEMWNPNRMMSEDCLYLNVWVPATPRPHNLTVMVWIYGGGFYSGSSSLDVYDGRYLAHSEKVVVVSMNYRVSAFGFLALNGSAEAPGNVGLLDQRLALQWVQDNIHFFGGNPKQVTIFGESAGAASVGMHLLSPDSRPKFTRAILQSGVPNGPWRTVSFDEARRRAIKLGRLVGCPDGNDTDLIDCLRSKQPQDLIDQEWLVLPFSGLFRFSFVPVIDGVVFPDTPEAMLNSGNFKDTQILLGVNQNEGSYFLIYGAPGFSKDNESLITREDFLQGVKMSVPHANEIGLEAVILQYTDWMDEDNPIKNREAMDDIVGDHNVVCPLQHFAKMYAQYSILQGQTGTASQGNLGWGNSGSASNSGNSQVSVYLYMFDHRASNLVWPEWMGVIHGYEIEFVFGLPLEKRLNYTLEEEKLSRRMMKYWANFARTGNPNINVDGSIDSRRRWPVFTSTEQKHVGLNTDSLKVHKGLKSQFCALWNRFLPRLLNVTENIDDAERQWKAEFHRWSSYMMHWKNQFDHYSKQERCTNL
# assay comment: AChE inhibition, Ellman's method
# Format: biochemical
# measurement context: 10^-4 M
Answer with the figure and its unit, nothing else.

Would you please look over these solved cases?
INSERT INTO assay_data (molecule, measured_target, data_value) VALUES
  ('COc1ccc(N2CCN(C(=S)SCC(=O)Nc3c4ccccc4nc4ccccc34)CC2)cc1 [Compound 4h]', 'AChE (Electrophorus electricus) (Electrophorus electricus, UniProt O42275)', '15.23 ± 0.69%'),
  ('CCN1CCN(C(=S)SCC(=O)Nc2c3ccccc3nc3ccccc23)CC1 [Compound 4c]', 'AChE (Electrophorus electricus) (Electrophorus electricus, UniProt O42275)', '5.11 ± 0.09%');

Name the recorded AChE (Electrophorus electricus) inhibitory activity (%) ± SD of the item CC1CCCCN1C(=S)SCC(=O)Nc1c2ccccc2nc2ccccc12 (centres unmarked) [Compound 4t] in your answer.
15.94 ± 0.42%

Name the recorded AChE (Electrophorus electricus) inhibitory activity (%) ± SD of the item O=C(CSC(=S)N1CCN(c2ccccc2)CC1)Nc1c2ccccc2nc2ccccc12 [Compound 4f] in your answer.
4.70 ± 0.27%

Name the recorded AChE (Electrophorus electricus) inhibitory activity (%) ± SD of the item O=C(CSC(=S)N1CCN(C(c2ccccc2)c2ccccc2)CC1)Nc1c2ccccc2nc2ccccc12 [Compound 4m] in your answer.
25.43 ± 1.21%

Name the recorded AChE (Electrophorus electricus) inhibitory activity (%) ± SD of the item O=C(CSC(=S)N1CCN(C(=O)c2ccco2)CC1)Nc1c2ccccc2nc2ccccc12 [Compound 4q] in your answer.
16.35 ± 0.39%

Name the recorded AChE (Electrophorus electricus) inhibitory activity (%) ± SD of the item CN1CCN(C(=S)SCC(=O)Nc2c3ccccc3nc3ccccc23)CC1 [Compound 4g] in your answer.
10.44 ± 0.66%

Name the recorded AChE (Electrophorus electricus) inhibitory activity (%) ± SD of the item O=C(CSC(=S)N1CCN(c2ccc(F)cc2)CC1)Nc1c2ccccc2nc2ccccc12 [Compound 4p] in your answer.
48.40 ± 1.18%
